target: Somatostatin receptor type 3 (Homo sapiens); experiment: Partial agonist activity at human sst3 receptor expressed in CCL39 cells after 5 hrs by luciferase reporter gene assay; type: functional, cell-based
Sequence (P32745 whole entry): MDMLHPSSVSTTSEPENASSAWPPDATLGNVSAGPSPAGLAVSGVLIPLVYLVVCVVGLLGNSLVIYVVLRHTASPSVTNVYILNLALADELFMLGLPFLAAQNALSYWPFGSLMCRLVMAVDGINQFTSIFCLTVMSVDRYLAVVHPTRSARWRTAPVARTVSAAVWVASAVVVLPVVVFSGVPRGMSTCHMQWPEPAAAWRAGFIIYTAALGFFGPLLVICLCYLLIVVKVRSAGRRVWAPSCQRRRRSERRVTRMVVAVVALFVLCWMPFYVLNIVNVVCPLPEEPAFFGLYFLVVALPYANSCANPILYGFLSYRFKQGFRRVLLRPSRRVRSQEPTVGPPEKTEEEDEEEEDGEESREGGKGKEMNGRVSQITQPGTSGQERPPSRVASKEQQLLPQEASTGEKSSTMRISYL
pEC50: −log10 of the molar value. Where a SMILES comes first, the peptide text is derived from it. Bridges are numbered along the chain shown (N, C = ends).
Tick Criterion met if pEC50 is 7 or greater. Tick Criterion not met if pEC50 is less than 7.

Reference set (3 entries):
- COMPOUND: "C[C@@H](O)[C@@H]1NC(=O)[C@H](CCCCN)NC(=O)[C@@H](Cc2cn(Cc3ccccc3)cn2)NC(=O)[C@H](Cc2ccccc2)NC(=O)[C@H](Cc2ccccc2)NC(=O)[C@@H](N)CSSC[C@@H](C(=O)O)NC(=O)[C@H](Cc2ccccc2)NC1=O"
  LABEL: "Criterion not met"
- COMPOUND: "C[C@H](N)C(=O)NCC(=O)N[C@H]1CSSC[C@@H](C(=O)O)NC(=O)[C@H](CO)NC(=O)[C@H]([C@@H](C)O)NC(=O)[C@H](Cc2ccccc2)NC(=O)[C@H]([C@@H](C)O)NC(=O)[C@H](CCCCN)NC(=O)[C@@H](Cc2cn(Cc3ccccc3)cn2)NC(=O)[C@H](Cc2ccccc2)NC(=O)[C@H](Cc2ccccc2)NC(=O)[C@H](CC(N)=O)NC(=O)[C@H](CCCCN)NC1=O"
  LABEL: "Criterion met"
- COMPOUND: "C[C@H](N)C(=O)NCC(=O)N[C@H]1CSSC[C@@H](C(=O)O)NC(=O)[C@H](CO)NC(=O)[C@H]([C@@H](C)O)NC(=O)[C@H](Cc2ccccc2)NC(=O)[C@H]([C@@H](C)O)NC(=O)[C@H](CCCCN)NC(=O)[C@H](Cc2cn(Cc3ccccc3)cn2)NC(=O)[C@H](Cc2ccccc2)NC(=O)[C@H](Cc2ccccc2)NC(=O)[C@H](CC(N)=O)NC(=O)[C@H](CCCCN)NC1=O"
  LABEL: "Criterion not met"

Next compound, please.
hey, is pEC50 for this one >= 7? C[C@@H](O)[C@@H]1NC(=O)[C@H](CCCCN)NC(=O)[C@H](Cc2c[nH]c3ccccc23)NC(=O)[C@H](Cc2ccccc2)NC(=O)[C@H](Cc2ccccc2)NC(=O)[C@@H](N)CSSC[C@@H](C(=O)O)NC(=O)[C@H](Cc2ccccc2)NC1=O (H-CFFWKTFC-OH; disulfide 1-8)
Criterion met
